Attribution: patent US7709498B2

Test system: Streptococcus pneumoniae (ATCC6305)
Test: Microtitre plate assay, IC90 determination, SPN 6305
Type: cell-based
Details: Streptococcus pneumoniae, ATCC6305, 24 h, 90% inhibitory concentration for bacterial growth, 37° C., resazurin fluorescence, read-out: IC90 (μg/ml) SPN 6305
Endpoint Label: IC90 (µg/mL)

Answered cases to consult:
> print(dat)
                                   compound  quantitative.readout
1  COc1ccc2cc(C(O)(CCN(C)C)C(c3ccccc3)c3cc4cc(Br)ccc4nc3OC)ccc2c1 (stereo not shown)                  14.7
2  COc1nc2ccc(Br)cc2cc1C(c1ccccc1)C(O)(CCN1CCCCC1)c1ccc2ccccc2c1 (stereo not shown)                    15

a = COc1nc2ccc(Br)cc2cc1C(c1ccc(C)cc1)C(O)(CCN(C)C)c1cccc2ccccc12 (stereo not shown)
b = COc1nc2ccc(Cl)cc2cc1C(c1ccccc1)C(O)(CCN(C)C)c1ccccc1 (stereo not shown)
[Q] Smaller IC90 value? Options are a and b Your answer should be the label of the entry you select.
[A] b
(b: 5.2 µg/mL, a: 14.3 µg/mL)
